// provenance: ChEMBL document CHEMBL5442168

Recorded microsomal CLint values for a group of compounds are listed next.
- PROCEDURE SUMMARY: Mouse liver microsomal stability of compound in microsomal protein, PBS buffer pH 7.4, NADPH, glucose-6-phosphate and glucose-6-phosphate dehydrogenase media. Aliquotes were taken at 5 time points and after stopping the reaction, supernatants were analyzed using HPLC coupled with a tandem mass spectrometer. The elimination constant, half-life, and intrinsic clearance are determined as results using linear regression analysis. The assay has been performed by Enamine biological services, Bienta Ltd.The protocol is publicly available: dx.doi.org/10.17504/protocols.io.5qpvokdb9l4o/v1
- Format: ADME, microsomes, Microsome
- EXPERIMENTAL CONDITIONS: liver microsomes
Report only the number, with the unit µL/min/mg understood.

SMILES: COCCNC(=O)c1c[nH]c2ncnc(N[C@@H](c3ccc4c(c3)S(=O)(=O)CCC4)C(C)C)c12
RECORDED METRIC: microsomal CLint
READOUT UNITS: µL/min/mg
OBS VALUE: 888

SMILES: CC(C)[C@@H](Nc1ncnc2[nH]c(-c3cnn(C)c3)cc12)c1ccc2c(c1)S(=O)(=O)NCC2
RECORDED METRIC: microsomal CLint
READOUT UNITS: µL/min/mg
OBS VALUE: 87

SMILES: CCNC(=O)c1cc2c(N[C@@H](c3ccc4c(c3)OCCO4)C(C)C)ncnc2[nH]1
RECORDED METRIC: microsomal CLint
READOUT UNITS: µL/min/mg
OBS VALUE: 88

SMILES: CC(C)[C@@H](Nc1ncnc2[nH]c(-c3cnn(CC(N)=O)c3)cc12)c1ccc2c(c1)S(=O)(=O)CCC2
RECORDED METRIC: microsomal CLint
READOUT UNITS: µL/min/mg
OBS VALUE: 61

SMILES: CC(C)[C@@H](Nc1ncnc2[nH]ccc12)c1ccc2c(c1)NC(=O)CO2
RECORDED METRIC: microsomal CLint
READOUT UNITS: µL/min/mg
OBS VALUE: 78

Req: Note down microsomal CLint recorded for CC(C)[C@@H](Nc1ncnc2[nH]c(-c3cnn(CC(N)=O)c3)cc12)c1ccc2c(c1)OCCO2
Resp: 41

Req: Note down microsomal CLint recorded for CC(C)[C@@H](Nc1ncnc2[nH]c(-c3ccc4nnn(C)c4c3)cc12)c1ccc2c(c1)S(=O)(=O)CCC2
Resp: 219

Req: Note down microsomal CLint recorded for CC(C)[C@@H](Nc1ncnc2[nH]c(-c3cnn(CC(=O)N(C)C)c3)cc12)c1ccc2c(c1)OCCO2
Resp: 59
